# TESTED_SYSTEM: T1, Ara h1 (heat-denatured, purified from parboiled peanut) (Arachis hypogaea, UniProt P43238 P43238:26-626)
# T1 sequence: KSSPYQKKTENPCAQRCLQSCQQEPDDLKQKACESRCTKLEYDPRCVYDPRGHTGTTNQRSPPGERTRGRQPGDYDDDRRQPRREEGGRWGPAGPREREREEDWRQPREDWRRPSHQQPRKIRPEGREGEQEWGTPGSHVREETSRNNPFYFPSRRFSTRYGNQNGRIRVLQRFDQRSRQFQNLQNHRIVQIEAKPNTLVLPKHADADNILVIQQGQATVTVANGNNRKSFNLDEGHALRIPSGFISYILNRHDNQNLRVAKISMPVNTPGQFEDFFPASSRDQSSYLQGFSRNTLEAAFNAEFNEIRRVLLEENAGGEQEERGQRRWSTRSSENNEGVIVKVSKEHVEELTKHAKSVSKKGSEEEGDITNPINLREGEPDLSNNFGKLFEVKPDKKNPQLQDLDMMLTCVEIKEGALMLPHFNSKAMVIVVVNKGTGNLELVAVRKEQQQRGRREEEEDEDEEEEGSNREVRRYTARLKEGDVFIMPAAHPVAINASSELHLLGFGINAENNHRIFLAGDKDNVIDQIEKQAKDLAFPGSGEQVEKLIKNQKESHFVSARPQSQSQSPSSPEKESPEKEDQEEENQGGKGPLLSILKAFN
# PROTOCOL_NOTES: SPR; 40 mM HEPES pH 7.5, 125 mM NaCl, 5 mM KCl, 1 mM MgCl2, 0.05% Tween 20
# APPLIED_CONDITIONS: tags: INDOOR biotechnologies NA-AH1-1
MEASURED_METRIC: pKd
// pKd here means minus log10 of the molar concentration (mol/L)

GTTTTCTAGGCCAATCTGATCAACAAAAAAAAAAAAAAAAAAAAAAAA (ssDNA) [P_NES04 (CONA171NNHR2R8m2s24)]; 9.85
P_NES03 (CONA161R2R8m1s32) (ssDNA) DNA: GTTCGTGGTGTGTTGTGTGTGATTCCAGGGACAAAAAAAAAAAAAAAAAAAAAAAA; 9.76

In the following, a different binder is considered.
For reference, reported pKd for TTTTTTTTTTTTTTTTTTTTAAAAAAAAAAAAAAAAAAAAAAAA (ssDNA) [PolydT20] stands at 9.72
